Entries and their inhibition (INH) values follow.
Tested on: Mus musculus
Test method notes: Antiinflammatory activity in po dosed mouse assessed as inhibition of LPS-induced TNFalpha upregulation measured 2 hrs after LPS challenge relative to control
Assay type: functional
Outcome measure: inhibition (INH)

* CC(C)(C)C(=O)N[C@H]1CCCCNC1=O | 80%
* O=C1NCCCC[C@@H]1NC(=O)C12CC3CC(CC(C3)C1)C2 | 90%
* CCCCCCCCCCC(C)(C)C(=O)N[C@H]1CCCCNC1=O | 70%
* CC1(C(=O)N[C@H]2CCCCNC2=O)CCCCC1 | 90%

###

Test method notes: Antagonist activity at Interleukin-8 receptor in human PMNC assessed as inhibition of CXCL8-induced chemotaxis after 2 hrs by microtiter format trans-well migration assay
Type: functional
Measurement context: read-out: ED50 (the source's name)
Outcome measure: EC50 (nM)

* CCCCCCCCCCC(C)(C)C(=O)N[C@H]1CCCCNC1=O | 0.3

###

Test method notes: Cmax in Sprague-Dawley rat at 3 mg/kg, po administered as single dose
Format: ADME, organism-based
Parameters: dose 3 mg/kg, route oral
Measurement context: in vivo
Known Cmax of a selection of molecules
Outcome measure: Cmax (ng/mL)

* CC1(C(=O)N[C@H]2CCCCNC2=O)CCCCC1 | 3
* CC(C)(C)C(=O)N[C@H]1CCCCNC1=O | 989
* CCCCCCCCCCC(C)(C)C(=O)N[C@H]1CCCCNC1=O | 60

###

Test method notes: AUC (0 to t) in Sprague-Dawley rat at 1 mg/kg, iv administered as single dose
Type: ADME, organism-based, Plasma
Design: dose 1 mg/kg, route intravenous
Measurement context: Sprague-Dawley, plasma
List of AUC(0-t) values.
Outcome measure: AUC(0-t) (ng·h/mL)

* CC1(C(=O)N[C@H]2CCCCNC2=O)CCCCC1 | 48.3
* CC(C)(C)C(=O)N[C@H]1CCCCNC1=O | 3860
* CCCCCCCCCCC(C)(C)C(=O)N[C@H]1CCCCNC1=O | 395

###

Test method notes: Half life in Sprague-Dawley rat at 3 mg/kg, po administered as single dose
Format: ADME, organism-based
Design: dose 3 mg/kg, route oral
Measurement context: in vivo
Measured half-life values are reported for all entries that follow.
Outcome measure: half-life (h)

* CCCCCCCCCCC(C)(C)C(=O)N[C@H]1CCCCNC1=O | 1.7
* CC(C)(C)C(=O)N[C@H]1CCCCNC1=O | 2.8
